# target_of_assay: GAL4-PPARδ (Homo sapiens, UniProt Q03181)
# Construct: PPARδ (amino acids 138-442)
# Sequence (Q03181 138-441 limits assumed): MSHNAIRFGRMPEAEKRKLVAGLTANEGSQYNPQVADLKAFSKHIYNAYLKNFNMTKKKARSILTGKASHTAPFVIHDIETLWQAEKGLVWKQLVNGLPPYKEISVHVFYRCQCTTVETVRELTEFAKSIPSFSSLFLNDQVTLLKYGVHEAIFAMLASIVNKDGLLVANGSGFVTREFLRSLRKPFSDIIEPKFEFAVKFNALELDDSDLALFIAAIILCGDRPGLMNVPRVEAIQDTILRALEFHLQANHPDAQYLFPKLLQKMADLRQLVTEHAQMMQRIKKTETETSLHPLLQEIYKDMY
# run_description: Cellular PPAR transactivation assay, GAL4-PPARδ chimera in CHO-K1 cells
# condition_notes: CHO-K1 cells, luciferase reporter, 6 h stimulation
pEC50: −log10 of the molar value.
Listed molecules paired with reported pEC50

- molecule: "COC(c1ccc(Cl)c(NC(=O)[C@H](c2ccc(Cl)cc2)[C@@H](C)C(F)(F)F)c1)C1(C(=O)O)CCC1 (single isomer, unassigned)"
  target_of_assay: "GAL4-PPARδ (Homo sapiens, UniProt Q03181)"
  pEC50: "< 5.00"
- molecule: "CC(C(C(=O)Nc1cc(CC2(C(=O)O)CC2)ccc1Cl)c1ccc(CC(F)(F)F)cc1)C(F)(F)F (single isomer, unassigned)"
  target_of_assay: "GAL4-PPARδ (Homo sapiens, UniProt Q03181)"
  pEC50: "< 5.00"
- molecule: "C[C@H]([C@H](C(=O)Nc1cc(CC2(C(=O)O)CC2)ccc1F)c1ccc(C(C)(F)F)cc1)C(F)(F)F"
  target_of_assay: "GAL4-PPARδ (Homo sapiens, UniProt Q03181)"
  pEC50: "< 5.00"
- molecule: "C[C@H]([C@H](C(=O)Nc1cc(CC2(C(=O)O)CC2)ccc1Cl)c1ccc(C(C)(C)C(F)(F)F)cc1)C(F)(F)F"
  target_of_assay: "GAL4-PPARδ (Homo sapiens, UniProt Q03181)"
  pEC50: "< 5.00"
- molecule: "CCCOc1ccc(C(=O)NCc2cc(CC3(C(=O)O)CCCO3)ccc2OCC)c(Cl)c1 (stereo not drawn) [Example 73 of EP 1 452 521-A1, reference compound]"
  target_of_assay: "GAL4-PPARδ (Homo sapiens, UniProt Q03181)"
  pEC50: 8.08
- molecule: "COC(c1ccc(Cl)c(NC(=O)[C@H](c2ccc(Cl)cc2)[C@@H](C)C(F)(F)F)c1)C1(C(=O)O)CC1 (single isomer, unassigned; (+))"
  target_of_assay: "GAL4-PPARδ (Homo sapiens, UniProt Q03181)"
  pEC50: "< 5.00"
- molecule: "[2H]C([2H])([2H])OC(c1ccc(Cl)c(NC(=O)[C@H](c2ccc(Cl)cc2)[C@@H](C)C(F)(F)F)c1)C1(C(=O)O)CCC1 (single isomer, unassigned)"
  target_of_assay: "GAL4-PPARδ (Homo sapiens, UniProt Q03181)"
  pEC50: "< 5.00"
- molecule: "COc1ccc(CC2(C(=O)O)CC2)cc1CNC(=O)c1ccc(Cl)cc1Cl [Example 11 of EP 1 452 521-A1, reference compound]"
  target_of_assay: "GAL4-PPARδ (Homo sapiens, UniProt Q03181)"
  pEC50: "< 6.00"
- molecule: "C[C@H]([C@H](C(=O)Nc1cc(CC2(C(=O)O)CC2)ccc1F)c1ccc(C2CC2)cc1)C(F)(F)F"
  target_of_assay: "GAL4-PPARδ (Homo sapiens, UniProt Q03181)"
  pEC50: "< 5.00"
- molecule: "O=C(Nc1cc(CC2(C(=O)O)CC2)ccc1Cl)C(c1ccc(Cl)cc1)C1CCC(F)(F)C1 (single isomer, unassigned)"
  target_of_assay: "GAL4-PPARδ (Homo sapiens, UniProt Q03181)"
  pEC50: "< 5.00"
- molecule: "CCOC(c1ccc(Cl)c(NC(=O)[C@H](c2ccc(Cl)cc2)[C@@H](C)C(F)(F)F)c1)C1(C(=O)O)CC1 (single isomer, unassigned)"
  target_of_assay: "GAL4-PPARδ (Homo sapiens, UniProt Q03181)"
  pEC50: "< 5.00"
- molecule: "C[C@H]([C@H](C(=O)Nc1cc(CC2(C(=O)O)CC2)ccc1Cl)c1ccc(Cl)cc1F)C(F)(F)F"
  target_of_assay: "GAL4-PPARδ (Homo sapiens, UniProt Q03181)"
  pEC50: "< 5.00"

Values from patent US9018258B2
